- TARGET OR SYSTEM: PDLIM1, O00151
- Sequence (O00151 1-87): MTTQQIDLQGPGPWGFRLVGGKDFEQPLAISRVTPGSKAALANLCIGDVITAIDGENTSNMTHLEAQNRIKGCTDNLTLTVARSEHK
- ASSAY OVERVIEW: holdup assay
- Set-up: key: below the threshold = too weak to quantify, mostly under pKd 3.1 to 4
- SETTINGS: plain residues with an end cap or a label only (N-terminal biotin on a linker: ahx)
RECORDED METRIC: pKd

Input: Look up pKd for this binder: LSDPSVSTVV [GRIN1, Q05586;Q05586-2]
Output: below the threshold

Input: Look up pKd for this binder: NRKREIFSNF [NHERF2, Q15599]
Output: below the threshold

Input: Look up pKd for this binder: RRRKRKRTYL [HPV49-L2, P36762]
Output: 3.52

Input: Look up pKd for this binder: RAVEEEESRF [PSCDBP, O60759]
Output: below the threshold
